- Test system: L929 cells
- Assay protocol: L929 cell necroptosis assay (TNFa + zVAD, CellTiter-Glo)
- Assay type: cell-based, murine
- Condition label: Mus musculus, L929, L929 cells, TNFa + zVAD; read-out: L929-CTG-recovery, L929, TNFa + zVAD (IC50)
Items are presented alongside their recorded IC50.
Please give a number only; it is taken to be in nM.

// worked examples, IC50 included
compound="CN1C(=O)[C@@H](NC(=O)n2cc(Cc3ccc(F)cc3)cn2)COc2ccc(C#CC3(O)CCOCC3)cc21 [Compound I-175]" value_kind=IC50 quantity_unit=nM recorded_value=107
compound="C=C(C#Cc1ccc2c(c1)N(C)C(=O)[C@@H](NC(=O)c1cc(Oc3ccc(F)cc3)ccn1)CO2)CCNC [Compound I-138]" value_kind=IC50 quantity_unit=nM recorded_value=3150

Let us examine a further case.
Inquiry: GET /values?readout=IC50&system=L929 cells&item= CN1C(=O)[C@@H](NC(=O)c2n[nH]c(Cc3ccccc3)n2)COc2ccc(C#CCN3CCOCC3)cc21 [Compound I-96]
Reply text: 0.8

----------
- Assay system: RIPK1 (Homo sapiens (Human))
- Assay protocol: RIPK1 ADP-Glo biochemical kinase assay
- Condition label: read-out: RIPK1 ADP-Glo Kinase (IC50)
Consider the following molecules and their measured IC50 readings.
Field note: include the unit after the figure.

compound_string=CN1C(=O)[C@@H](NC(=O)c2cc(Oc3ccc(F)cc3)ccn2)COc2ccc(C#CC(C)(C)C)cc21 value_kind=IC50 recorded_value="133 nM"
compound_string=CN1C(=O)[C@@H](NC(=O)n2cc(Cc3ccccc3)cn2)COc2ccc(C#Cc3cccnc3)cc21 value_kind=IC50 recorded_value="76.2 nM"
compound_string=CN1C(=O)[C@@H](NC(=O)c2nnc(C3(c4ccccc4)CC3)o2)COc2ccc(N3CC4(CCOCC4)C3)cc21 value_kind=IC50 recorded_value="62.1 nM"

Field: next molecule
Inquiry: Lab note: need IC50 with RIPK1 (Homo sapiens (Human)) for entry `CN1C(=O)[C@@H](NC(=O)c2n[nH]c(Cc3ccccc3)n2)COc2ccc(CN3CCn4nc(C(F)(F)F)nc4C3)cc21` , please look it up.
Reply text: 88.7 nM

----------
Item-by-item account of IC50
- Assay system: RIPK1 (Homo sapiens (Human), UniProt Q13546)
- Sequence (Q13546 whole entry, species assumed): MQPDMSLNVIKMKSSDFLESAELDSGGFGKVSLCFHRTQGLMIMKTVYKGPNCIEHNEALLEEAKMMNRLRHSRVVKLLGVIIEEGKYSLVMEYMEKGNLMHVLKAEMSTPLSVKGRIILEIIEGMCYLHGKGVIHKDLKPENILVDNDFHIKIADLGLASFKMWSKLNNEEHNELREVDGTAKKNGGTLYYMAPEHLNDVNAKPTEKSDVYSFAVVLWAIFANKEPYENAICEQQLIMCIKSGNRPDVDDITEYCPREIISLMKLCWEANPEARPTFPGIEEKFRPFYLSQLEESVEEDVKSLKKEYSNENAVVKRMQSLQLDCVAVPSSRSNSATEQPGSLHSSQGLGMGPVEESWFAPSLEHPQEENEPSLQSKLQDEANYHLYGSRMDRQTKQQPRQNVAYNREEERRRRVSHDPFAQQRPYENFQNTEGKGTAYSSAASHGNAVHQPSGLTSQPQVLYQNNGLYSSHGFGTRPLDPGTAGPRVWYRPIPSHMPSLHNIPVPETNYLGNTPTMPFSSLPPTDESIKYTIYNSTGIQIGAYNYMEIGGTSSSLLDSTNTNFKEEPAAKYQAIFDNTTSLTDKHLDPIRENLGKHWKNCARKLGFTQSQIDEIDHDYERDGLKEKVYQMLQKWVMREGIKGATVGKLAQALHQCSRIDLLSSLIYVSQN
- Assay protocol: RIPK1 ADP-Glo biochemical kinase assay
- Condition label: read-out: RIPK1 ADP-Glo Kinase (IC50)
Express it in nM; write the number only.

Completed entries (count: 2):
molecule=CN1C(=O)[C@@H](NC(=O)c2n[nH]c(Cc3ccccc3)n2)COc2ccc(CCC(C)(C)O)cc21 recorded_value=37.5
molecule=CN1C(=O)[C@@H](NC(=O)c2cc(Oc3ccccc3)ccn2)COc2ccc(C#CC(C)(C)N3CCCC3)cc21 recorded_value=28.6

Inquiry: Entry `CN1C(=O)[C@@H](NC(=O)c2nnc(Cc3ccccc3)o2)COc2ccc(N3CC4(CCOCC4)C3)cc21` has what IC50?
Reply text: 55.9

Inquiry: Bench note: what IC50 did `CN1C(=O)[C@@H](NC(=O)n2cc(Cc3ccc(F)cc3)cn2)COc2ccc(C#CC3(O)CC4(CCC4)C3)cc21` show?
Reply text: 312

Inquiry: Please look up its IC50: `COc1cc2ncnc(NC(=O)CCc3ccc4c(c3)N(C)C(=O)[C@@H](NC(=O)c3n[nH]c(Cc5ccccc5)n3)CO4)c2cc1OC`
Reply text: 56.8

Inquiry: Look at this molecule and give its reported IC50. `COC(=O)C(C)(C)C#Cc1ccc2c(c1)N(C)C(=O)[C@@H](NC(=O)c1n[nH]c(Cc3ccccc3)n1)CO2`
Reply text: 44.9

Inquiry: So what does the record say about IC50 for `CN1C(=O)[C@@H](NC(=O)c2cc(Oc3ccccc3)ccn2)COc2ccc(C#CC(C)(C)N)cc21` ?
Reply text: 21.2

Inquiry: Give its IC50 value. Item: CC(C)[C@H](N)C(=O)OC1(C#Cc2ccc3c(c2)N(C)C(=O)[C@@H](NC(=O)c2cc(Oc4ccccc4)ccn2)CO3)COC1 [Compound I-164]
Reply text: 71.7

Inquiry: Request the reported IC50 associated with `COC(C)(C)C#Cc1ccc2c(c1)N(C)C(=O)[C@@H](NC(=O)c1n[nH]c(Cc3ccccc3)n1)CO2`
Reply text: 65.4

Inquiry: Quick one: IC50 for `CN1C(=O)[C@@H](NC(=O)c2n[nH]c(Cc3ccccc3)n2)COc2ccc(C#CCN3CCCC3)cc21` ?
Reply text: 27.1

Inquiry: Reported IC50, molecule `CN1C(=O)[C@@H](NC(=O)c2cc(Oc3ccccc3)ccn2)COc2ccc(C#CC3(O)CCN(C(=O)c4cc(Oc5ccccc5)ccn4)CC3)cc21` : ____
Reply text: 446

Inquiry: Any idea what its IC50 is? The molecule is `COc1ccnc(C(=O)N[C@H]2COc3ccc(C#CC4(O)COC4)cc3N(C)C2=O)c1`
Reply text: 54.4

Entry source: patent US11407736B2
